Provenance of the data: ChEMBL document CHEMBL1146340

Assay: Cytotoxicity against human MRC5 cells by neutral red uptake assay
Format: cell-based
Give measured CC50 for each item. Keep answers brief.
Field format: number, assumed µM, no unit text.

Req: # CC50 lookup, item CCCCCCCCCCCCCCCCOCCCOP(=O)(O)CC/C=C\Cn1cnc2c(=O)nc(N)[nH]c21
Resp: 12.2

Req: // query: CCCCCCCCCCCCCCCCOCCCOP(=O)(O)CC/C=C\Cn1ccc(N)nc1=O
Resp: 11.2

Req: // query: CCCCCCCCCCCCCCCCOCCCOP(=O)(O)CC/C=C\Cn1cnc2c(N)ncnc21
Resp: 17.3

Req: // query: CCCCCCCCCCCCCCCCOCCCOP(=O)(O)CC/C=C\Cn1cc(C)c(=O)[nH]c1=O
Resp: 7.4

Req: // query: CCCCCCCCCCCCCCCCOCCCOP(=O)(O)CC/C=C\Cn1ccc(=O)[nH]c1=O
Resp: 51

---

Test: Cytotoxicity against human MRC5 cells by neutral red uptake assay
Assay type: cell-based
Property Measured: CC50

Req: # CC50 lookup, item Cc1cn(C/C=C\CCP(=O)(O)O)c(=O)[nH]c1=O
Resp: > 100 µM

Req: // query: Nc1ccn(C/C=C\CCP(=O)(O)O)c(=O)n1
Resp: > 100 µM

Req: // query: Nc1ncnc2c1ncn2C/C=C\CCP(=O)(O)O
Resp: > 100 µM

Req: // query: Nc1nc(=O)c2ncn(C/C=C\CCP(=O)(O)O)c2[nH]1
Resp: > 100 µM

Req: // query: O=c1nc(O)ccn1C/C=C\CCP(=O)(O)O
Resp: > 100 µM
